- ASSAY SYSTEM: BRD9 (Homo sapiens, UniProt Q9H8M2)
- Sequence (Q9H8M2 1-597): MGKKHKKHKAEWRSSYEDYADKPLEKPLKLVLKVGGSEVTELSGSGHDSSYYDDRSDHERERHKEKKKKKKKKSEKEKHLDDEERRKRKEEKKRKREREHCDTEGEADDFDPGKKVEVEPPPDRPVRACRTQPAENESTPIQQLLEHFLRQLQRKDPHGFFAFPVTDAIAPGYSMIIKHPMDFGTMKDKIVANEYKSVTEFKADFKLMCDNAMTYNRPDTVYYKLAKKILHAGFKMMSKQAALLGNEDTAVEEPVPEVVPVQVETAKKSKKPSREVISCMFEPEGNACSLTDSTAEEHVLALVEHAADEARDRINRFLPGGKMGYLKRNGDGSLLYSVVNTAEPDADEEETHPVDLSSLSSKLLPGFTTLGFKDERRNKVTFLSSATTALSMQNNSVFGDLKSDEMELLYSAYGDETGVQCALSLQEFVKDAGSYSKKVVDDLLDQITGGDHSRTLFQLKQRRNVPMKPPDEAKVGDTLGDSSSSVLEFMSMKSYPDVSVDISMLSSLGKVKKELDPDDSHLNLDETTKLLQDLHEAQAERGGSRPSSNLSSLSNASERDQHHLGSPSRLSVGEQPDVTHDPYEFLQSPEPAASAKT
- ASSAY EXPLANATION: Assay Protocol 2 - Degradation of BRD9 (IF) in MV4-11 cells
- Assay type: cell-based
- Design: host or cells: MV4-11
- RUN CONDITIONS: Assay Protocol 2: BRD9 immunofluorescence, 24 hours
I'd appreciate it if you could supply Dmax values for the items below.

COc1cc(-c2cn(C)c(=O)c(C)c2C)cc(OC)c1CN1C2CC1CN(C(=O)/C(C#N)=C/C1(F)CC1)C2
≥ 70%
COc1cc(-c2cn(C)c(=O)c(C)c2C)cc(OC)c1CN1CC2CC(C1)N2C(=O)/C(C#N)=C/c1nccs1 (mixture of isomers)
30 to 50%

# next compound below
Kindly note: BRD9 (Homo sapiens, UniProt Q9H8M2), COc1cc(-c2cn(C)c(=O)c(C)c2C)cc(OC)c1CN1C2CC1CN(C(=O)/C(C#N)=C/c1cccc(Br)n1)C2 (mixture of isomers) , Dmax value reported: ≥ 70%

---

- ASSAY SYSTEM: SMARCA2 (Homo sapiens)
- Construct: a HiBiT tag knocked in at the 3′ end of SMARCA2; host or cells: HeLa SMARCA2 HiBiT knock-in cells
- Sequence (P51531 whole entry): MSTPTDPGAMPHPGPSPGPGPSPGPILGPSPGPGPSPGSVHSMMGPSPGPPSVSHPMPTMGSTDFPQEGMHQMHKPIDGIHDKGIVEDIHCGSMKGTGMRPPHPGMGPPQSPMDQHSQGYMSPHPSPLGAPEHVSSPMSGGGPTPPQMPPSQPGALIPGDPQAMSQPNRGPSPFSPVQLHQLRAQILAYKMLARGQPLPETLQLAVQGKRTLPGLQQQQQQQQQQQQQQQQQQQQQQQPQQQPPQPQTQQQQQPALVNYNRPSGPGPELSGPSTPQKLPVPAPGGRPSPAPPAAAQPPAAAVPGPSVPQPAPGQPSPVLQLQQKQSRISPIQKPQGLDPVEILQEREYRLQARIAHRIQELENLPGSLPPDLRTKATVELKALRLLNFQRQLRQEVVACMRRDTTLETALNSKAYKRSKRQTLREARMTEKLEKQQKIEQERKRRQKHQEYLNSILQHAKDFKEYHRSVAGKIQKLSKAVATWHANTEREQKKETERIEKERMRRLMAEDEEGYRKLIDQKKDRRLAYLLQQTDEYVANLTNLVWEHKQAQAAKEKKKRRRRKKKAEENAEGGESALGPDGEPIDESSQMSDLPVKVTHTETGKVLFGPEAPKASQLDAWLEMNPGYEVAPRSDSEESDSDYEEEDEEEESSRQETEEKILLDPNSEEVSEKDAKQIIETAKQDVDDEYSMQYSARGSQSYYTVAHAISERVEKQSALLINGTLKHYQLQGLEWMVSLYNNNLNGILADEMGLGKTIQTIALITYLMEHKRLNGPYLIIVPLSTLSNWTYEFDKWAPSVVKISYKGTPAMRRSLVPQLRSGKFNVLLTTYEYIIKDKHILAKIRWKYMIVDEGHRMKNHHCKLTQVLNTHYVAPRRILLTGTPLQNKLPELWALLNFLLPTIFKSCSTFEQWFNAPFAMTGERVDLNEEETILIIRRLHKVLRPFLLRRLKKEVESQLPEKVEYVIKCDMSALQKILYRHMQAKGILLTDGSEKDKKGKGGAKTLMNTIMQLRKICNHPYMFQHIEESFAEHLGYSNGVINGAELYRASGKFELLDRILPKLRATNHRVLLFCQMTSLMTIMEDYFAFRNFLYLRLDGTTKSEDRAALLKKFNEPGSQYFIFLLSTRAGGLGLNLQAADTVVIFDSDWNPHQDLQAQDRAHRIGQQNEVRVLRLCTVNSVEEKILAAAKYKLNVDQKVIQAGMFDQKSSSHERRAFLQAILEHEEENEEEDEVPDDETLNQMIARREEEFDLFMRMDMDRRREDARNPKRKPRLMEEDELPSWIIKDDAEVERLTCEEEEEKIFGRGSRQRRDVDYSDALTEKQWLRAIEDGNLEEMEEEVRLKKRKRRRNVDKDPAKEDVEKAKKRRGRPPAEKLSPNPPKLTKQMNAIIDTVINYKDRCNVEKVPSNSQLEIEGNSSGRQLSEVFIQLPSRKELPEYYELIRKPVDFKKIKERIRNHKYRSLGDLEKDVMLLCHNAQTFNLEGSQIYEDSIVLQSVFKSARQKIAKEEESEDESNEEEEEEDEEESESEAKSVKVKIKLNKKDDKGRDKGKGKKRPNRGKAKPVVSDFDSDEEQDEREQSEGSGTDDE
- ASSAY EXPLANATION: SMARCA2 degradation, HeLa SMARCA2 HiBiT cells (Assay Protocol 1)
- Type: cell-based
- RUN CONDITIONS: 24 hours after compound addition
READOUT: Dmax

Consider the worked cases shown below.
CC(C)C1CC(C(=O)N[C@@H]2CCCN(c3cc(-c4ccccc4O)nnc3N)C2)CN(C(=O)/C(C#N)=C/C(C)(C)C)C1 (stereo partly drawn)
50 to 65%
CC(C)[C@@H]1CN(C(=O)/C(C#N)=C/C(C)(C)C)C[C@H]1C(=O)N[C@@H]1CCCN(c2cc(-c3ccccc3O)nnc2N)C1
65 to 80%

Please fill in: Dmax reported for `CC(C)(C)/C=C(\C#N)C(=O)N1CCN(CC(=O)N[C@@H]2CCCN(c3cc(-c4ccccc4O)nnc3N)C2)CC1` = 50 to 65%
